- Method: Cell Viability - HUV-EC-C (AID 542);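 note: cells exposed to compound for 40 hours; nearly all actives have a fitted effect of over 35% in size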
- Experimental parameters: HUV-EC-C endothelial cell viability, qHTS; series mostly up to 92.2 µM
Results filed as inconclusive are left out. Active and inactive are the calls of the source. Calls come from the whole dose curve; as a rule, active = well fitted cell-killing curve with a large enough effect; inconclusive = small, poorly fitted or top-dose-only effect, or effect the other way; inactive = flat fitted curve, though single readings scatter.

Query smiles | outcome
C=C[C@H]1CN2CC[C@H]1C[C@@H]2[C@@H](O)c1ccnc2ccc(OC)cc12 | inactive
OC[C@H]1O[C@@H]2O[C@H]3[C@H](O)[C@@H](O)[C@@H](O[C@H]4[C@H](O)[C@@H](O)[C@@H](O[C@H]5[C@H](O)[C@@H](O)[C@@H](O[C@H]6[C@H](O)[C@@H](O)[C@@H](O[C@H]7[C@H](O)[C@@H](O)[C@@H](O[C@H]8[C@H](O)[C@@H](O)[C@@H](O[C@H]1[C@H](O)[C@H]2O)O[C@@H]8CO)O[C@@H]7CO)O[C@@H]6CO)O[C@@H]5CO)O[C@@H]4CO)O[C@@H]3CO | inactive

----------
- Measured target: Alpha-galactosidase A (Homo sapiens) (UniProt P06280)
- Sequence (P06280 whole entry, looked up): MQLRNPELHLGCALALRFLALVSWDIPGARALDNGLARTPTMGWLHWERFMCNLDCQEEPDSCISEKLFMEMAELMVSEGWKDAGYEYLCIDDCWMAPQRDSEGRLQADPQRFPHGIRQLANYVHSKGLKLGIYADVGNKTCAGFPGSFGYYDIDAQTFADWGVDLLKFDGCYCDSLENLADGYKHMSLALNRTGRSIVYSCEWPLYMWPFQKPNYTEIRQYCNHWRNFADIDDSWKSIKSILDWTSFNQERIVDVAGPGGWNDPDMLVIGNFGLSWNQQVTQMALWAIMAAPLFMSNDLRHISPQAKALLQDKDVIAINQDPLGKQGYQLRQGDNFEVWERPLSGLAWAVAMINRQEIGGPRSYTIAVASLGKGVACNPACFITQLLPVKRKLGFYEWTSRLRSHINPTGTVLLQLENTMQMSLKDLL
- Method: Counterscreen for Glucocerebrosidase Inhibitors: qHTS Assay for Human alpha-Galactosidase at pH 4.5 (AID 992)
- Experimental parameters: purified enzyme, fluorogenic substrate; series mostly up to 76.9 µM
The source made the active and inactive calls. Calls follow the shape of the dose curve; as a rule, active = well fitted curve in the direction sought with a large enough effect; inactive = no such curve, though single readings can be large or run the other way.

Query smiles | outcome
CN=C(N)NCCC[C@H](N)C(=O)O | inactive
NC(N)=NCc1cccc(I)c1 | inactive
CC(C)(C)NC[C@H](O)COc1nsnc1N1CCOCC1 | inactive
NS(=O)(=O)Cc1noc2ccccc12 | inactive

----------
- System: DFO2036
- Method: qHTS profiling for inhibitors of Plasmodium falciparum proliferation (AID 504749); note: nearly all actives have a fitted effect of over 60% in size
- Experimental parameters: P. falciparum in erythrocytes, SYBR Green DNA, 72 h; series mostly up to 28.7 µM
Results filed as inconclusive are left out. The source made the active and inactive calls. Calls come from the whole dose curve; as a rule, active = well fitted inhibition curve with a large enough effect; inconclusive = small, poorly fitted or top-dose-only effect; inactive = flat fitted curve, though single readings scatter.
Possible outcomes: active, inactive

Compound | Measured target | Answer label
Cc1cc(CC(=O)O)c(C)n1-c1ccc(Cl)cc1 | DFO2036 | inactive
Cc1c[nH]c2ccccc12 | DFO2036 | inactive
C#C[C@]1(O)CC[C@H]2[C@@H]3CCC4=Cc5oncc5C[C@]4(C)[C@H]3CC[C@@]21C | DFO2036 | inactive
C/C=C/c1ccc(O)c(OC)c1 | DFO2036 | inactive
N#CCC(=O)NN | DFO2036 | inactive
O=[N+]([O-])c1cccc(S(=O)(=O)NCCNS(=O)(=O)c2cccc([N+](=O)[O-])c2)c1 | DFO2036 | inactive
CCCc1ncc(C[n+]2ccccc2C)c(N)n1 | DFO2036 | inactive
O=C(O)CCC(=O)Nc1ccc(S(=O)(=O)Nc2nccs2)cc1 | DFO2036 | inactive
C#C[C@]1(OC(C)=O)CC[C@H]2[C@@H]3CCC4=C/C(=N/O)CC[C@@H]4[C@H]3CC[C@@]21CC | DFO2036 | inactive
NC(=O)C1(N2CCCCC2)CCN(CCCC(=O)c2ccc(F)cc2)CC1 | DFO2036 | inactive
Nc1ccc(S(=O)(=O)Nc2cnc3ccccc3n2)cc1 | DFO2036 | inactive
CCOc1ccccc1C(N)=O | DFO2036 | inactive
CCOC(=O)C(C#N)=C(c1ccccc1)c1ccccc1 | DFO2036 | inactive
Cc1nc(-c2ccc(Cl)cc2)oc1COC(C)(C)C(=O)O | DFO2036 | inactive
C[N+]1(CC2COC(c3ccccc3)(C3CCCCC3)O2)CCCCC1 (centres undefined) | DFO2036 | active
CCCCCCCCCCCCOCCOCCOCCOCCOCCOCCOCCOCCOCCO | DFO2036 | inactive
CC(=O)Nc1ccc(OCC(O)CNC(C)C)cc1 (centres undefined) | DFO2036 | inactive
CC(=O)OC[C@H]1O[C@@H](n2ncc(=O)[nH]c2=O)[C@H](OC(C)=O)[C@@H]1OC(C)=O | DFO2036 | inactive
CN(C)CCC[C@@]1(c2ccc(F)cc2)OCc2cc(C#N)ccc21 | DFO2036 | inactive
CC(C)=CCOc1ccc(/C=C/C(=O)c2ccc(OCC=C(C)C)cc2OCC(=O)O)cc1 | DFO2036 | inactive
CN(C)CCOC(c1ccc(Cl)cc1)c1ccccn1 (centres undefined) | DFO2036 | inactive
Cc1cccc(C)c1NC(=O)c1ccccc1C(=O)O | DFO2036 | inactive
CCNC(=O)NCc1cccc(Cl)c1 | DFO2036 | inactive
NS(=O)(=O)c1ccc(Cl)c(S(N)(=O)=O)c1 | DFO2036 | inactive
C[C@@H](O)[C@H]1C(=O)N2C(C(=O)O)=C(S[C@@H]3CN[C@H](CNS(N)(=O)=O)C3)[C@H](C)[C@H]12 | DFO2036 | inactive
COc1ccc2c(c1)c1c3n2CCN(C)C3=NCC1 | DFO2036 | inactive
O=C(O)C1(C(=O)O)CCC1.[NH2-].[NH2-].[Pt+2] | DFO2036 | inactive
c1ccc(CC2=NCCN2)cc1 | DFO2036 | inactive
O=C1C(CCS(=O)c2ccccc2)C(=O)N(c2ccccc2)N1c1ccccc1 (centres undefined) | DFO2036 | inactive
Cc1c(-c2ccccc2)oc2c(C(=O)OCCN3CCCCC3)cccc2c1=O | DFO2036 | inactive
CCCCN=C(N)N=C(N)N | DFO2036 | inactive
NC(=O)c1ccccc1O | DFO2036 | inactive
CC(=O)OCC(=O)[C@H]1CC[C@H]2[C@@H]3CCC4=CC(=O)CC[C@]4(C)[C@H]3CC[C@]12C | DFO2036 | inactive
COc1ccc(CN(CCN(C)C)c2ncccn2)cc1 | DFO2036 | inactive
CCOC(=O)c1c(N)sc2c1CCN(Cc1ccccc1)C2 | DFO2036 | active
CCC(CC)(CC(=O)Nc1cccc(/C=C/c2nc(C3CCC3)cs2)c1)C(=O)O | DFO2036 | inactive
O=C(Nc1cccc(C2=NCCN2)c1)Nc1cccc(C2=NCCN2)c1 | DFO2036 | active
CN(C)C(=O)Nc1ccc(Cl)c(Cl)c1 | DFO2036 | inactive
CCC1Nc2cc(Cl)c(S(N)(=O)=O)cc2S(=O)(=O)N1 (centres undefined) | DFO2036 | inactive
O=C(NCCc1c[nH]c2ccccc12)c1cccnc1 | DFO2036 | inactive
CCCCC(CC)COC(=O)c1ccc(N(C)C)cc1 (centres undefined) | DFO2036 | inactive
CN1CCN(C2=Nc3cc(F)ccc3Cc3ccccc32)CC1 | DFO2036 | inactive
CC(C)Cn1cnc2c1c(=O)n(C)c(=O)n2C | DFO2036 | inactive
CC(=O)NO | DFO2036 | inactive
CCCCCCCCCCCCCC(=O)OC(C)C | DFO2036 | inactive
COc1cc(C(=O)NCc2ccc(OCCN(C)C)cc2)cc(OC)c1OC | DFO2036 | inactive
O=C1C(=O)c2ccccc2C(O)=C1C1CCC(c2ccc(Cl)cc2)CC1 (centres undefined) | DFO2036 | active
CCCCCCCCOc1ccc(C(=O)c2ccccc2)c(O)c1 | DFO2036 | inactive
CCCCCCCCCCCCSCCOCCO | DFO2036 | inactive
